Molecular target: wild-type un-phosphorylated FGFR1 (Homo sapiens, UniProt P11362)
Sequence (P11362 22-822): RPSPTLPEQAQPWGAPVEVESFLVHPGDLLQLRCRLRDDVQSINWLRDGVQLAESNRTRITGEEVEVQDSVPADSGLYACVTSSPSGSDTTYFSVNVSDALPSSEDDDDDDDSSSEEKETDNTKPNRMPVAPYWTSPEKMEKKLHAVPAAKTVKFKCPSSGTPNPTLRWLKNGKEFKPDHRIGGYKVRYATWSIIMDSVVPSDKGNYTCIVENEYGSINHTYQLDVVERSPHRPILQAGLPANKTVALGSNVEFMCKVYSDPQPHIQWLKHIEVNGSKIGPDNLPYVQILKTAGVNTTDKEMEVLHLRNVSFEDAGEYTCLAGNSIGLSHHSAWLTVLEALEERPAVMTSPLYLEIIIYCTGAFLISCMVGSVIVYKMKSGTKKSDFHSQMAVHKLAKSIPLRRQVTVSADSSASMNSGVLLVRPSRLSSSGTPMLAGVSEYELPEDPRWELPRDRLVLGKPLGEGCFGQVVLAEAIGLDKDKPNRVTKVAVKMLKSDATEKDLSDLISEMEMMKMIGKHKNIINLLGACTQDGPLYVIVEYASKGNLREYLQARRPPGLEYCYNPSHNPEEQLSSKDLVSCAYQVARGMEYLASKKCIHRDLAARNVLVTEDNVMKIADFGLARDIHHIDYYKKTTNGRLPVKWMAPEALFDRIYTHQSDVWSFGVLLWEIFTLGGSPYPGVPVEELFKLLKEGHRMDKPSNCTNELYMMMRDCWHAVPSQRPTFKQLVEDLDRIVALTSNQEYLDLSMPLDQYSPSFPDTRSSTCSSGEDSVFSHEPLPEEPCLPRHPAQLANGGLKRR
Experiment: FGFR Enzymatic Assay (FRET peptide phosphorylation), FGFR1
Conditions: FGFR1, wild-type un-phosphorylated FGFR1; pre-incubated for 4 hours
Measured Quantity: IC50

Some entries whose results are on file:
- COc1cc2[nH]nc(-c3cnn(C)c3)c2nc1-c1cccc2c1CCC2O (single isomer, unassigned) [Example 7]: 40 to 100 nM
- COc1cc2[nH]nc(-c3ccc(N4CCN5C[C@H](O)C[C@H]5C4)nc3)c2nc1-c1cccc(OC)c1C [Example 90]: > 100 nM
- CNc1cc2[nH]nc(-c3cnn(C)c3)c2nc1-c1cccc(C)c1C [Example 34]: 40 to 100 nM

# ---- query compound ----
Entry under test: COc1cc2[nH]nc(-c3cnn(C4CC(C#N)C4)c3)c2nc1-c1cccc2c1CCC2C#N (stereo not shown) [Example 111] . Its IC50 was < 6 nM

----------
Molecular target: wild-type un-phosphorylated FGFR1 (Homo sapiens)
Experiment: FGFR Enzymatic Assay (FRET peptide phosphorylation), FGFR1
Conditions: read-out: FGFR1; wild-type un-phosphorylated FGFR1; pre-incubated for 4 hours
pIC50: −log10 of the molar value.
Measured Quantity: pIC50

Some entries whose results are on file:
• [2H]C1(O)Cc2cccc(-c3nc4c(-c5cnn(C)c5)n[nH]c4cc3OC)c2C1 (single isomer, unassigned) = 7.40 to 8.22
• COc1cc2[nH]nc(-c3cnn(C4CN(C(=O)[C@@H]5CCN5C(C)C)C4)c3)c2nc1-c1cccc2c1CCC2 = 7.40 to 8.22
• COc1cc2[nH]nc(-c3ccc(C4CC(N(C)C(=O)CO)C4)nc3)c2nc1-c1cccc2c1CCC2 (stereo not shown) = 7.40 to 8.22
• [2H]C1(c2ccc(-c3n[nH]c4cc(OC)c(-c5cccc6c5CCC6)nc34)cn2)CN(C(=O)CO)C1 = 7.40 to 8.22
• COc1cc2[nH]nc(-c3cnn([C@H]4CCN(C(=O)[C@@H]5CCN5CCF)C4)c3)c2nc1-c1cccc2c1CCC2 = 7.40 to 8.22

The reported wild-type un-phosphorylated FGFR1 (Homo sapiens) pIC50 of COc1cc2[nH]nc(-c3cnn(C4CN(C(=O)[C@H]5CCOC5)C4)c3)c2nc1-c1cccc2c1CCC2 is 7.40 to 8.22

The reported wild-type un-phosphorylated FGFR1 (Homo sapiens) pIC50 of COc1cc2[nH]nc(-c3ccc([C@@]45C[C@@H]4CN(CCO)C5)cc3)c2nc1-c1cccc2c1CCC2C#N (stereo partly shown) is 7.40 to 8.22

----------
Biological target: UniProt:P11362
Experiment: FGFR Enzymatic Assay (FRET peptide phosphorylation), FGFR1
Conditions: FGFR1, wild-type un-phosphorylated FGFR1; pre-incubated for 4 hours
Measured Quantity: IC50

Some entries whose results are on file:
• COc1cc2[nH]nc(-c3cnn(C4CN(C(=O)N(C)C)C4)c3)c2nc1-c1cccc(C)c1C = 40 to 100 nM
• COc1cc2[nH]nc(-c3ccc(C4CCC(NC(=O)CO)C4)nc3)c2nc1-c1cccc2c1CCC2 (stereo not shown) = 40 to 100 nM
• COc1cc2[nH]nc(-c3ccc(N4CCN5C[C@H](O)C[C@H]5C4)nc3)c2nc1-c1cccc2c1OCCO2 = > 100 nM
• COc1cc2[nH]nc(-c3ccc(C(C)N4CCOCC4)nc3)c2nc1-c1cccc2c1CCC2 (stereo not shown) = 40 to 100 nM
• COc1cc2[nH]nc(-c3ccc(C4(C#N)CCN(CCO)CC4)nc3)c2nc1-c1cccc2c1CCC2 = 40 to 100 nM
• COc1cc2[nH]nc(-c3cnn(Cc4ccccn4)c3)c2nc1-c1cccc(C)c1C = > 100 nM

# ---- query molecule ----
Entry under test: COc1cc2[nH]nc(-c3ccc(N4CC(N(C)C(=O)CO)C4)nc3)c2nc1-c1cccc(C)c1C . Its IC50 was 40 to 100 nM
